molecular target: UniProt Q13526; assay: Pin1 fluorescence polarization competition assay with Tamra-probe (secondary); conditions: Tamra-probe
Sequence (Q13526 whole entry): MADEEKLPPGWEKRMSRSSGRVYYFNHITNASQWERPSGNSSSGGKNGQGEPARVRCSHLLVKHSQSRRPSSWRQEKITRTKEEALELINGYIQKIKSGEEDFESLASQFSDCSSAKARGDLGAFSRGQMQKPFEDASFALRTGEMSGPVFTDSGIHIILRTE
measured-metric: Tamra Secondary Curve Class

Below: 3 compounds and their reported Tamra Secondary Curve Class.
>>> value_reported("O=C(O)C1Nc2c(O)cccc2C2C=CCC12 (stereo not drawn) [Compound 4]")
"2.2 (≤80% (class 2.2))"
>>> value_reported("Cc1cc(C(=O)NCc2ccc(C(=O)O)o2)c(C)o1 [Compound 33]")
"2.2 (≤80% (class 2.2))"
>>> value_reported("Cc1ccc(C)c2c1NC(C(=O)O)C1CC=CC21 (stereo not drawn) [Compound 7]")
"2.2 (≤80% (class 2.2))"

Find the recorded Tamra Secondary Curve Class belonging to COC(=O)COc1ccc(C2Nc3c(Cl)ccc(C(=O)O)c3C3C=CCC32)cc1 (stereo not drawn) [Compound 42] and report it.
2.2 (≤80% (class 2.2))

Reported Tamra Secondary Curve Class, compound CC(C)COc1ccc(C(=O)N/C(=C\c2cccc([N+](=O)[O-])c2)C(=O)O)cc1 [Compound 37] : ____
2.2 (≤80% (class 2.2))

Name the recorded Tamra Secondary Curve Class for Cc1ccc(NC(=O)CN(C)C(=O)c2cccc(-n3cccc3)c2)cc1 [Compound 25] .
3.0

Entry O=C(O)CCCNC(=O)/C=C/c1ccco1 [Compound 19] : reported Tamra Secondary Curve Class = ?
2.2 (≤80% (class 2.2))

Consider the compound O=C(O)C1Nc2c(Cl)cc(Cl)c(Cl)c2C2C=CCC12 (stereo not drawn) [Compound 5] and give its measured Tamra Secondary Curve Class.
1.2 (≤80% (class 1.2))

What does the data say about its Tamra Secondary Curve Class? Entry: O=C(O)c1cc2cccc([N+](=O)[O-])c2[nH]1 [Compound 22]
2.2 (≤80% (class 2.2))

Taken from patent US11129835B2.
